Catalogue of EC50 readings, one per entry.
SYSTEM TESTED: hMC3-R (Homo sapiens, UniProt P41968)
Construct: expressed in transfected cells; host or cells: CHO-K1
Sequence (P41968 whole entry): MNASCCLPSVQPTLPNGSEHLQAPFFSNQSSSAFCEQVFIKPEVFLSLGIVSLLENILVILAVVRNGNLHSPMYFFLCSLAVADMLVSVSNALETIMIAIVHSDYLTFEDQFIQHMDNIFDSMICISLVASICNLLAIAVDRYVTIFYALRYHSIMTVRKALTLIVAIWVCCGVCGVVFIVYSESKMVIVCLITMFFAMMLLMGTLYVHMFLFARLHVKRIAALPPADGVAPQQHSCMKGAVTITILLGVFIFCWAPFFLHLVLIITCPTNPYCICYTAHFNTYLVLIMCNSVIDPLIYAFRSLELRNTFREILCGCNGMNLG
TEST: cyclic AMP bioassay (ECL) in CHO-K1 cells
Format: cell-based
CONDITION SET: Table 9A/9B; read-out: EC50 hMC3-R
Bridge positions count the residues as written; N and C are the ends. Square brackets hold non-standard residues; d marks the D form. Peptide text beside a SMILES is read from it. Bip = N[C@@H](Cc1ccc(-c2ccccc2)cc1)C(=O)O; hArg = N=C(N)NCCCC[C@H](N)C(=O)O; Nle = CCCC[C@H](N)C(=O)O; Ava = NCCCCC(=O)O; GABA = NCCCC(=O)O; βAla = NCCC(=O)O
Reply with just the number (in nM).

INSERT INTO measurements (molecule, number) VALUES
  ('CCOc1ccc(C[C@H]2NC(=O)[C@H](Cc3c[nH]cn3)NC(=O)[C@@H](NC(=O)[C@H](N)Cc3ccccc3)CSSC[C@H](C(=O)N[C@H](C(N)=O)[C@@H](C)O)NC(=O)CCNC(=O)[C@H](Cc3ccc(-c4ccccc4)cc3)NC(=O)[C@H](CCCCNC(=N)N)NC2=O)cc1 (H-[dF]CH[dY](Et)[hArg][Bip][βAla][dC]T-NH2; disulfide 2-8)', 81.8),
  ('CCCC[C@H](NC(C)=O)C(=O)N[C@H]1CSSC[C@@H](C(N)=O)NC(=O)CCCCNC(=O)[C@H](Cc2c[nH]c3ccccc23)NC(=O)[C@H](CCCNC(=N)N)NC(=O)[C@@H](Cc2ccccc2)NC(=O)[C@H](Cc2c[nH]cn2)NC1=O (Ac-[Nle]CH[dF]RW[Ava]C-NH2; disulfide 2-8)', 0.199);

*Q* Fill blank: measured EC50 of the molecule CCCC[C@H](N)C(=O)N[C@H]1CSSC[C@@H](C(N)=O)NC(=O)CCCNC(=O)[C@H](Cc2c[nH]c3ccccc23)NC(=O)[C@H](CCCNC(=N)N)NC(=O)[C@@H](Cc2ccccc2)NC(=O)[C@H](Cc2c[nH]cn2)NC1=O (H-[Nle]CH[dF]RW[GABA]C-NH2; disulfide 2-8) is ____.
*A* 0.1

====

Parameter pEC50: see the listing below.
SYSTEM TESTED: hMC4-R (Homo sapiens, UniProt P32245)
Construct: expressed in transfected cells; host or cells: CHO-K1
Sequence (P32245 whole entry): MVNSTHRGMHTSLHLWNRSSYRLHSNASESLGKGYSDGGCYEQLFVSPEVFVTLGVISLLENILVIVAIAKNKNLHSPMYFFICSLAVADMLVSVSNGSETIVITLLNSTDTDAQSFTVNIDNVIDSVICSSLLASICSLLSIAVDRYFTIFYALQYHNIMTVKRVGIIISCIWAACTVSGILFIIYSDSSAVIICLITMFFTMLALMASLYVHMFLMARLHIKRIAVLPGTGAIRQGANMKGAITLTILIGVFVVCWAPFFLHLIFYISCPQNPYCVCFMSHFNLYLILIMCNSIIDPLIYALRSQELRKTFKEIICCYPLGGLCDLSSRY
TEST: cyclic AMP bioassay (ECL) in CHO-K1 cells
Format: cell-based
Note on pEC50: it is the negative log10 of concentration, concentration in mol/L.

INSERT INTO assay_data (sample_smiles, number) VALUES
  ('C[C@H]1NC(=O)[C@@H](NC(=O)CN2C(=O)N[C@@H](CCCNC(=N)N)C2=O)CSSC[C@@H](C(N)=O)NC(=O)[C@H](Cc2c[nH]c3ccccc23)NC(=O)[C@H](CCCNC(=N)N)NC(=O)[C@@H](Cc2ccccc2)NC(=O)[C@H](Cc2cnc[nH]2)NC1=O', 9.30),
  ('C[C@@H]1NC(=O)N(CC(=O)N[C@H]2CSSC[C@@H](C(N)=O)NC(=O)[C@H](Cc3c[nH]c4ccccc34)NC(=O)[C@H](CCCNC(=N)N)NC(=O)[C@@H](Cc3ccccc3)NC(=O)[C@H](Cc3cnc[nH]3)NC(=O)[C@@H](C)NC2=O)C1=O', 9.62),
  ('CC(=O)N[C@H](CCCNC(=N)N)C(=O)N[C@H]1CSSC(C)(C)[C@@H](C(N)=O)NC(=O)[C@H](Cc2c[nH]c3ccccc23)NC(=O)[C@H](CCCNC(=N)N)NC(=O)[C@@H](Cc2ccccc2)NC(=O)[C@H](Cc2c[nH]cn2)NC(=O)[C@@H](C)NC1=O', 9.31);

With those in mind, consider the next compound.
*Q* # query: pEC50 | item "CCCC[C@@H](C(=O)N[C@H]1CSSC[C@@H](C(N)=O)NC(=O)[C@H](Cc2c[nH]c3ccccc23)NC(=O)[C@H](CCCNC(=N)N)NC(=O)[C@@H](Cc2ccccc2)NC(=O)[C@H](Cc2cnc[nH]2)NC(=O)[C@@H](C)NC1=O)N1C(=O)N[C@@H](CC(C)C)C1=O" | system: hMC4-R (Homo sapiens, UniProt P32245)
*A* 8.74

====

SYSTEM TESTED: hMC3-R (Homo sapiens)
Construct: expressed in transfected cells; host or cells: CHO-K1
TEST: cyclic AMP bioassay (ECL) in CHO-K1 cells
Format: cell-based
CONDITION SET: Table 9A/9B; read-out: EC50 hMC3-R
TEST READOUT: EC50 (nM)

1. CCCC[C@H](NC(C)=O)C(=O)N[C@H]1CC(=O)NCCCC[C@@H](C(N)=O)NC(=O)CCCNC(=O)[C@H](Cc2c[nH]c3ccccc23)NC(=O)[C@H](CCCNC(=N)N)NC(=O)[C@@H](Cc2ccccc2)NC(=O)[C@H](Cc2c[nH]cn2)NC1=O
2. CCCC[C@H](NC(C)=O)C(=O)N[C@H]1CC(=O)NCCCC[C@@H](C(N)=O)NC(=O)CCNC(=O)[C@H](Cc2c[nH]c3ccccc23)NC(=O)[C@H](CCCNC(=N)N)NC(=O)[C@@H](Cc2ccccc2)NC(=O)[C@H](Cc2c[nH]cn2)NC1=O
3. CC(=O)N[C@H](CCCNC(=N)N)C(=O)N[C@H]1CC(=O)NCCCC[C@@H](C(N)=O)NC(=O)[C@H](C)NC(=O)[C@H](Cc2c[nH]c3ccccc23)NC(=O)[C@H](CCCNC(=N)N)NC(=O)[C@@H](Cc2ccccc2)NC(=O)[C@H](Cc2c[nH]cn2)NC1=O
*Q* Order field: EC50 | Direction: descending (largest first) Answer format: the labels, ordered as requested.
*A* 3, 1, 2
(3: 5.76 nM, 1: 0.628 nM, 2: 0.145 nM)

====

SYSTEM TESTED: hMC5-R (Homo sapiens)
Construct: expressed in transfected cells; host or cells: CHO-K1
Sequence (P33032 whole entry): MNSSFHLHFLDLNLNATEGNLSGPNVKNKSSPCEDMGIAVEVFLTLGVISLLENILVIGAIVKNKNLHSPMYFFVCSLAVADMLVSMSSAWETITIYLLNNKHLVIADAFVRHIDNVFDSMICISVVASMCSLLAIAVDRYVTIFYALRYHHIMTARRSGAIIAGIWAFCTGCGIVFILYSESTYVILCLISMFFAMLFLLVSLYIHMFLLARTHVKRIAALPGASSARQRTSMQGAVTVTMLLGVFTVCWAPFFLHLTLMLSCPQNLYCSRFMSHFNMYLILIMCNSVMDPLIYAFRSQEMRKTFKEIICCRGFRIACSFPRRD
TEST: Radioligand binding assay, [125I]-NDP-α-MSH competition, CHO-K1 membranes
CONDITION SET: Table 5; read-out: Ki hMC5-R
Bridge positions count the residues as written; N and C are the ends. Square brackets hold non-standard residues; d marks the D form. Peptide text beside a SMILES is read from it. GABA = NCCCC(=O)O
TEST READOUT: Ki (nM)
The response must be a number in nM with no trailing unit.

INSERT INTO results (compound, number) VALUES
  ('CCCC[C@H](NC(C)=O)C(=O)N[C@H]1CSSC[C@@H](C(N)=O)NC(=O)CCCNC(=O)[C@H](Cc2c[nH]c3ccccc23)NC(=O)[C@H](CCCNC(=N)N)NC(=O)[C@@H](Cc2ccccc2)NC(=O)[C@H](Cc2cccnc2)NC1=O', 92.6);

*Q* Look at this compound and give its reported Ki. C[C@@H](O)[C@H](NC(=O)[C@H]1CSSC[C@H](NC(=O)[C@H](N)Cc2ccccc2)C(=O)N[C@@H](Cc2c[nH]cn2)C(=O)N[C@H](Cc2ccccc2)C(=O)N[C@@H](CCCNC(=N)N)C(=O)N[C@@H](Cc2c[nH]c3ccccc23)C(=O)NCCCC(=O)N1)C(N)=O (H-[dF]CH[dF]RW[GABA][dC]T-NH2; disulfide 2-8)
*A* 1260

====

SYSTEM TESTED: hMC1-R (Homo sapiens, UniProt Q01726)
Construct: expressed in transfected cells; host or cells: CHO-K1
Sequence (Q01726 whole entry): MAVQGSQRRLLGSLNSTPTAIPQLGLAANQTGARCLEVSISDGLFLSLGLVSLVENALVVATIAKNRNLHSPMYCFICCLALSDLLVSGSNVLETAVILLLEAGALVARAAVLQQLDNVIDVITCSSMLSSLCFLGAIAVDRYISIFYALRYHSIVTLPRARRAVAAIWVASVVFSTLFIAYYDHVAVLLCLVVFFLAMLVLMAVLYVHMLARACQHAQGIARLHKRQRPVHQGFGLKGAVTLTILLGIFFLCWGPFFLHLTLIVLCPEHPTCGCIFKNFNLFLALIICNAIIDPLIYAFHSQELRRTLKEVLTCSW
TEST: Radioligand binding assay, [125I]-NDP-α-MSH competition, CHO-K1 membranes
CONDITION SET: Table 5; read-out: Ki hMC1-R
Procedure: Cellular membranes used for the in vitro receptor binding assays were obtained from transgenic CHO-K1 cells stably expressing hMC-R receptor subtypes 1, 3, 4 or 5. […] The pellets were resuspended in the same buffer and centrifuged at 50,000 g for 10 minutes at approximately 4° C. The washed pellets containing the cellular membranes were stored at approximately −80° C. […]
pKi: −log10 of the molar value.
TEST READOUT: pKi

INSERT INTO assay_data (compound, system_tested, number) VALUES
  ('CC(=O)N[C@H](CCCNC(=N)N)C(=O)N[C@H]1CC(=O)NCCCC[C@@H](C(N)=O)NC(=O)[C@H](C)NC(=O)[C@H](Cc2c[nH]c3ccccc23)NC(=O)[C@H](CCCNC(=N)N)NC(=O)[C@@H](Cc2ccccc2)NC(=O)[C@H](Cc2c[nH]cn2)NC1=O', 'hMC1-R (Homo sapiens, UniProt Q01726)', 9.10);

1. CCCC[C@H](NC(C)=O)C(=O)N[C@H]1CSSC[C@@H](C(N)=O)NC(=O)[C@H](Cc2c[nH]c3ccccc23)NC(=O)[C@H](CCCNC(=N)N)NC(=O)[C@@H](Cc2ccccc2)NC(=O)[C@H](Cc2c[nH]cn2)NC(=O)[C@@H](C(C)(C)C)NC1=O
2. CC(=O)N[C@@H](CCc1ccccc1)C(=O)N[C@H]1CC(=O)NCCCC[C@@H](C(N)=O)NC(=O)CCCNC(=O)[C@H](Cc2c[nH]c3ccccc23)NC(=O)[C@H](CCCNC(=N)N)NC(=O)[C@@H](Cc2ccc3ccccc3c2)NC(=O)[C@H](Cc2c[nH]cn2)NC1=O
*Q* From the items above, decide which of 1 and 2 has the lower pKi reading. Please identify the chosen entry by its label.
*A* 1
(1: 7.92, 2: 9.34)
